Quick list: ELISA OD per entry.
Target: T1, recombinant mouse JE/MCP-1 (mouse, UniProt P10148 24-148)
T1 construct: also called rmJE/MCP-1
T1 sequence (P10148 24-148 limits assumed): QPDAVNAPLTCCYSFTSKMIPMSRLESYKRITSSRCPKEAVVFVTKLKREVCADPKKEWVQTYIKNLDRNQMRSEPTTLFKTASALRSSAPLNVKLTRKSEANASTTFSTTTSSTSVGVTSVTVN
Assay: ELISA, coated antigen
Express the result in OD450 but write the number alone.

Below, each entry is followed by its recorded ELISA OD result.
[[record]]
binder = "anti-MCP-1 mAb 2.4.1 (antibody, V domains shown) VH: QVQLVQSGAEVKKPGASVKVSCKASGYTFTGYYLHWVRQAPGQGLEWMGWINPYNDGTNYAQKFQGRVTMTRDTSISTAYMELSRLRSDDTAVYYCARDIAAAGAVYFDYWGQGTLVTVSS VL: DIQMTQSPSSLSASVGDRVTITCQASQDITTYLNWYQQKPGKAPKLLIYDASNLETGVPSRFSGSGSGTDFTFTISSLQPEDIATYYCQQYDNLPITFGQGTRLEIKR"
observed_measurement = 0.129

[[record]]
binder = "anti-MCP-1 mAb 3.5.1 (antibody, V domains shown) VH: QVQLVQSGAEVKKPGASVKVSCKVSGYTLSELSMHWVRQAPGKGLEWMGGFDPEDDETIYAQKFQGRVTMTEDTSTDTAFMELSSLRSEDTAVYYCATHDFWSGYFHYWGQGTLVTVSS VL: DIVMTQSPDSLAVSLGERATINCKSSQSVLYSSDNKSYLVWYQQKPGQPPKVLIYWASIRESGVPDRFSGSGSGTDFTLTISSLQAEDVAVYYCQQYYTSPWTFGQGTKVEIKR"
observed_measurement = 0.042

[[record]]
binder = "anti-MCP-1 mAb 3.4.1 (antibody, V domains shown) VH: QVQLVQSGAEVKKPGASVKVSCKVSGYTLTELSMHWVRQAPGKGLEWMGGFDPEDGETMYAQKFQGRVTMTEDTSTDTAYMELSSLRSEDTAVYYCATDDFWSGYFDYWGQGTLVTVSS VL: DIVMTQSPDSLAVSLDERATINCKSSQSVLYSPNQKNYLVWYQQKPGQPPKLLLYWASIRESGVPDRFSGSGSGTDFTLTISSLQAEDVAVYYCQQSYFTPWTFGQGTKVEIKR"
observed_measurement = 0.044

[[record]]
binder = "anti-MCP-1 mAb 1.6.1 (antibody, V domains shown) VH: QVQLVQSGAEVKKPGASVKVSCKVSGYTLTELSMHWVRQAPGKGLEWMGGFDPEDGETIYAQKFQGRVTMTEDTSTDTAYMELSSLRSEDTAVYYCATWYSGIYLAFDIWGQGTMVTVSS VL: EIVLTQSPDFQSVTPKEKVTITCRASQSIGSSLHWYQQKPDQSPKLLIKYASQSFSGVPSRFSGSGSGTDFTLTINSLEAEDAATYYCHQSSSLPHTFGGGTKVEIKR"
observed_measurement = 0.042

[[record]]
binder = "anti-MCP-1 mAb 1.2.1 (antibody, V domains shown) VH: QVQLVQSGAEVKKPGASVKVSCKVSGYTFTELSMHWVRQAPGKGLEWMGGFDPEDGETSYAQKFRGRVTMTEDTSTDTAHMELSSLRSEDTAVYYCATNDFWSGYFDYWGQGTLVTVSS VL: DIQMTQSPSSVSASVGDRVTITCRASQGIDIYLAWYQQKPGKAPKLLINAASSLQNGVPSRFGGSGSGTDFTLTISGLQPEDFATYYCQLTYFFPWTFGQGTKVEIKR"
observed_measurement = 0.041

[[record]]
binder = "anti-MCP-1 mAb 1.11.1 (antibody, V domains shown) VH: QVQVVQSGAEVKNPGASVKVSCKVSGSTLTELSMHWVRQAPGKGLEWMGGFDPEDGETIYAQKFQGRVTMTEDTSTDTVYMELSSLRSEDTAVYYCATNDFWSGYFDYWGQGTLVTVSS VL: DIVMTQSPDSLAVSLGERATITCKSSQTVLYSSNNKNYLVWYQQKSGQPPKLLIHWASIRESGVPDRFSGSGSGTDFTLTISSLQAEDVAVYYCQQYYSSPWTFGQGTKVEIKR"
observed_measurement = 0.041

[[record]]
binder = "anti-MCP-1 mAb 5.3.1 (antibody, V domains shown) VH: QVQLVQSGAEVKKPGASVKVSCKVSGYTLSELSMHWVRQAPGKGLEWMGGFDPEDGETIYAQKFQGRVTMTEDTSTDTAYMELSSLRSEDTAVFYCATKREYSGYFDYWGQGTLVTVSS VL: DIVMTQSPDSLAVSLGERATINCKSSQSVLYSSNSKNYLAWFQQKPGQPPKLLIYWASTRESGVPDRFSGSGSGTDFTLTISRLQAEDVAVYSCQQYFITPWTFGQGTKVELKR"
observed_measurement = 0.05

[[record]]
binder = "anti-MCP-1 mAb 3.16.1 (antibody, V domains shown) VH: QVQLVQSGAEVKKPGASVKVSCKVSGYTLTDLSMHWVRQAPGKGLEWMGGFDPEDGETIYAQKFQGRVTMTEDTSSDTAYMELSSLRSEDTAVYYCATHEFWSGYFDYWGQGTLVTVSS VL: DIVMTQSPDSLAVSLGERATINCKSSQSVLFSSNNKSYLTWYQQKPGQPPKLLIFWASIRESGVPDRISGSGSGTDLTLTISSLQAEDAAVYYCQQYYSSPWTFGQGTKVEIKR"
observed_measurement = 0.042


(Q) Quick one: ELISA OD of anti-MCP-1 mAb 1.13.1 (antibody, V domains shown) VH: QVQLVQSGAEVKKPGASVKVSCKVSGHTLTELSMHWVRQAPGKGLEWMGGFDPEDDETIYAQKFQDRVTMTEDTSTDTAYMELSSLRSEDTAVYYCATNDFWSGYFDCWGQGTLVTVSS VL: DIVLTQSPDSLAVCLGERATINCKSSQSVLYSPNNKNFLVWYQQRPGQPPKLLIYWASTRESGVPDRFSGSGSGTDFTLTISSLQAEDVAVYYCQQYYSSPWTFGQGTKVEIKR ?
(A) 0.043

(Q) Try this binder too: anti-MCP-1 mAb 1.4.1 (antibody, V domains shown) VH: QSGPGLVKPSQTLSLTCAISGDSVSSNSAAWNWIRQSPSRGLEWLGRTYYRSKWYSDHAVSVRSRITIYPDTSKNQFSLQLNSVTPEDTAVYYCARDRISGTYVGMDVWGQGTTVTVSS VL: DIGMTQTPLSLSVTPGQPASISCKSSQSLLYSDGKTYLYWYLQKPGQPPQHLIYEVSNRFSGVPDRFSGSGSGTDFTLKISRVEADDVGVYYCMQTIHLPLTFGGGTKVEIQR
(A) 0.042

(Q) Field entry: anti-MCP-1 mAb 1.8.1 (antibody, V domains shown) VH: QVQLVQSGAEVKKPGASVKVSCKVSGHIFTELSIHWVRQAPGKGLEWMGGFDPEDGETIYAQKFQGRVTMTEDTSTDTVYMELSSLRSEDTAVYYCATNDFWSGYFDYWGQGTLVTVSS VL: DIVMTQSPGSLAVSLGERATINCKSSQSILFRSNNKNYLTWYQQKPGQPPKLLIYWASIRESGVPDRFSGSGSGSNFTLTITSLQAEDVAIYYCQQYYSSPWTFGQGTKVEIKR
(A) 0.045
